# collection of Ki values tested on Human immunodeficiency virus type 1 protease (Human immunodeficiency virus 1)
outcome measure: Ki

compound | observed result
COc1ccc(S(=O)(=O)N(CC2CCCC2)C[C@@H](O)CN2C(=O)[C@@H](Cc3ccccc3)C[C@@H]2Cc2ccccc2)cc1 | 0.8 nM
O=C(N[C@H]1c2ccccc2C[C@H]1O)[C@H](Cc1ccccc1)C[C@H](O)CN1C(=O)C2(CCOCC2)C[C@@H]1Cc1ccccc1 | 23 nM
NC(C(=O)[C@H](Cc1ccccc1)C[C@H](O)CN1C(=O)[C@@H](Cc2ccccc2)C[C@@H]1Cc1ccccc1)[C@H]1c2ccccc2C[C@H]1O (stereo partly specified) | 0.05 nM
COc1ccc(S(=O)(=O)N(CC2CCCC2)C[C@@H](O)CN2C(=O)C3(CCCCC3)OC[C@@H]2Cc2ccccc2)cc1 | 1.7 nM
O=C(N[C@H]1c2ccccc2C[C@H]1O)[C@H](Cc1ccccc1)C[C@H](O)CN1C(=O)C2(CCN(Cc3ccccc3)CC2)C[C@@H]1Cc1ccccc1 | 2500 nM
O=C(N[C@H]1c2ccccc2C[C@H]1O)[C@H](Cc1ccccc1)C[C@H](O)CN1C(=O)C2(CCCCC2)C[C@@H]1Cc1ccccc1 | 50 nM

Measured values drawn from ChEMBL document CHEMBL1134987 for this set.
